Tested on: Staphylococcus aureus
Conditions: Concentration 32 ug.mL-1; ASSAY_TEST Inhibition of Bacterial Growth; detection method Absorption (OD600); MEDIA CAMHB; plate type 384well; NBS; CORNING #3640; time 18 hr
Description: Antibacterial activity against Staphylococcus aureus MRSA ATCC 43300 (CO-ADD:GP_020); MIC in CAMBH media, using NBS plates, by OD(600)
Entries with a potency or affinity are not part of this list.
We begin with a simple list: items and their reported Inhibition.
Write the value in % as a bare number.

As a guide, the following entries are already answered.
>>> obs_value("Cc1nc2c3cnn(-c4ccccc4)c3ncn2n1")
15.5
>>> obs_value("CCOC(=O)c1c(C)nc(/N=N/c2nc(C)c(C(=O)OCC)c(-c3ccccc3)c2C#N)c(C#N)c1-c1ccccc1")
11.27
>>> obs_value("O=C(NNCCc1ccccc1)c1cc2ccccc2[nH]1")
-6.37
>>> obs_value("CCOC(=O)c1c(C)nc(NCC2CCN(Cc3ccccc3)CC2)c(C#N)c1-c1ccccc1")
24.62
>>> obs_value("O=C(Cc1cccc2ccccc12)N/N=C/c1c[nH]c2ccccc12")
12.36
>>> obs_value("N#Cc1cc(C#N)c(Cl)nc1Cl")
15.28
>>> obs_value("N#Cc1cc2c(N)c3c(nc2nc1N1CCCCC1)CCCC3")
29.29
>>> obs_value("Cc1ccc2nc(Cl)c(/C=N/C(C)(C)C)cc2c1")
28.46

[in] Quick one: Inhibition of O=C(N/N=C/c1ccc(Cl)cc1)c1cc2ccccc2[nH]1 ?
[out] 1.43

[in] Quick one: Inhibition of O=C(Cc1c[nH]c2ccccc12)NN=C1CCCCCC1 ?
[out] 10.21

[in] Quick one: Inhibition of CCOC(=O)c1c(C)[nH]c2ccc(OC)cc12 ?
[out] -4.64

[in] Quick one: Inhibition of Cc1ccc(C(O)SNNc2ncnc3c2c(C)nn3-c2ccccc2)cc1 (centres undefined) ?
[out] 5.38

[in] Quick one: Inhibition of O=C(N[C@H]1CC[C@@H](Br)[C@@H](Br)C1)C(F)(F)F ?
[out] 24.31

----------
Test system: Staphylococcus aureus
Details: Concentration 32 ug.mL-1; ASSAY_TEST Inhibition of Bacterial Growth; detection method Absorption (OD600); MEDIA CAMHB; plate type 384well; NBS; CORNING #3640; time 18 hr
Entries with a potency or affinity are not part of this list.
measured attribute: Inhibition (%)
Write the value in % as a bare number.

As a guide, the following entries are already answered.
>>> obs_value("COc1ccc(-c2cc(-c3cc4c(OC)ccc(OC)c4nc3Cl)cc(=O)[nH]2)cc1")
22.4
>>> obs_value("Cl.Nc1c2c(nc3c1C(c1ccccc1)c1ccc4ccccc4c1O3)CCCC2 (configuration not stated)")
23.84
>>> obs_value("Cl.N#Cc1c(Cl)nc(N)nc1NCCO")
-0.92
>>> obs_value("N#Cc1c(N)nc(S)c(C#N)c1-c1ccccc1")
14.03
>>> obs_value("N#Cc1cc2c(N)c3c(nc2nc1Cl)CCCC3")
35.71
>>> obs_value("C#CCNc1nc(N)c(C#N)c(-c2ccccc2)c1C#N")
3.95
>>> obs_value("Cc1ccc(CNNC(N)=O)cc1.Cl")
4.52
>>> obs_value("C#CC[n+]1ccccc1N.[Br-]")
6.4

[in] Quick one: Inhibition of Cc1nc(Nc2ccccc2)c2c(C)nn(-c3ccccc3)c2n1 ?
[out] 15.21

[in] Quick one: Inhibition of Cn1c(C(=O)N2CCOCC2)cc2cc(OCCCC3CCN(Cc4ccccc4)CC3)ccc21 ?
[out] 23.07

[in] Quick one: Inhibition of CCOc1nc2nc(C)c(C=C3CCN(Cc4ccccc4)CC3)cc2c(-c2ccccc2)c1C#N ?
[out] 33.88

[in] Quick one: Inhibition of CC1(C)OC(=O)C(=Cc2ccc([N+](=O)[O-])cc2)C(=O)O1 ?
[out] 28.78

----------
System: Staphylococcus aureus
Details: Concentration 32 ug.mL-1; ASSAY_TEST Inhibition of Bacterial Growth; detection method Absorption (OD600); MEDIA CAMHB; plate type 384well; NBS; CORNING #3640; time 18 hr
Results with a measured potency or affinity are listed apart.
We begin with a simple list: items and their reported Inhibition.
Write the value in % as a bare number.

>>> obs_value("C#CCN(C)c1cc(C)nc(C)n1")
21.48
>>> obs_value("CN(C)c1nc2nc3c(c(N)c2c(-c2ccccc2)c1C#N)CCCC3")
5.71
>>> obs_value("NNC(=O)Cc1c[nH]c2ccccc12")
10.37

[in] Quick one: Inhibition of CCOC(=O)c1cc2c(N)c3c(nc2nc1C)CCCC3 ?
[out] 8.67

[in] Quick one: Inhibition of Cc1ccc(C2c3ccc4ccccc4c3Oc3nc4c(c(N)c32)CCCC4)cc1 (configuration not stated) ?
[out] -4.73

[in] Quick one: Inhibition of COc1ccc(C2c3ccc4ccccc4c3Oc3nc4c(c(N)c32)CCCC4)c(OC)c1 (configuration not stated) ?
[out] -6.11

[in] Quick one: Inhibition of NC1(C(=O)O)CC1c1ccc2c(c1)OCO2 (configuration not stated) ?
[out] -7.05

[in] Quick one: Inhibition of N#Cc1cc(C#N)c(N2CCC(Cc3ccccc3)CC2)nc1N ?
[out] -2.68

[in] Quick one: Inhibition of COC(=O)/C(=C/c1ccc(O)cc1)NC(=O)c1ccccc1 ?
[out] 4.82

[in] Quick one: Inhibition of N#Cc1cc(C#N)c(Cl)nc1N ?
[out] 11.29

[in] Quick one: Inhibition of O=C1NC(=S)N/C1=C\c1c[nH]c2ccccc12 ?
[out] 7.26

[in] Quick one: Inhibition of O=C(NNC(Cc1ccccc1)Cc1ccccc1)c1cc2ccccc2[nH]1 ?
[out] -3.72

----------
We begin with a simple list: items and their reported Inhibition.
System: Escherichia coli
Conditions: Concentration 32 ug.mL-1; ASSAY_TEST Inhibition of Bacterial Growth; detection method Absorption (OD600); MEDIA CAMHB; plate type 384well; NBS; CORNING #3640; time 18 hr
Description: Antibacterial activity against Escherichia coli ATCC 25922 (CO-ADD:GN_001); MIC in CAMBH media using NBS plates, by OD(600)
Measured potencies and affinities stand elsewhere.
Write the value in % as a bare number.

>>> obs_value("Cl.N#Cc1c(Cl)nc(N)nc1NCCO")
-1.11
>>> obs_value("CC(=O)Oc1ccc(C=C2N=C(C)OC2=O)cc1")
9.02

[in] Quick one: Inhibition of O=C(N[C@H]1CC[C@@H](Br)[C@@H](Br)C1)C(F)(F)F ?
[out] -25.88

[in] Quick one: Inhibition of N#CC1(Br)C(=NBr)Oc2c(ccc3ccccc23)C1c1ccccc1[N+](=O)[O-] (configuration not stated) ?
[out] -16.66

[in] Quick one: Inhibition of NC1(C(=O)O)CC1c1ccc2c(c1)OCO2 (configuration not stated) ?
[out] -7.79

[in] Quick one: Inhibition of CN(C)c1nc(N)c(C#N)cc1C#N ?
[out] 5.07

[in] Quick one: Inhibition of CCOC(=O)C1=C(C)NC(N)=C(C#N)C1c1ccc([N+](=O)[O-])cc1 (configuration not stated) ?
[out] -7.02

[in] Quick one: Inhibition of Cn1c(CNNC(=O)c2ccco2)cc2ccccc21 ?
[out] 21.64

[in] Quick one: Inhibition of N#Cc1c(NC2CCC(Cc3ccccc3)CC2)nc(NC2CCN(Cc3ccccc3)CC2)c(C#N)c1-c1ccccc1 (configuration not stated) ?
[out] -8.77

[in] Quick one: Inhibition of O=C(O)C(=Cc1ccccc1)NC(=O)c1ccccc1 ?
[out] 9.37

[in] Quick one: Inhibition of O=C(N/N=C/c1ccc(Cl)cc1)c1cc2ccccc2[nH]1 ?
[out] 20.07

[in] Quick one: Inhibition of CCCCCCC(C)NNC(=O)c1cc2ccccc2[nH]1 (configuration not stated) ?
[out] 6.64

----------
Tested on: Escherichia coli
Conditions: Concentration 32 ug.mL-1; ASSAY_TEST Inhibition of Bacterial Growth; detection method Absorption (OD600); MEDIA CAMHB; plate type 384well; NBS; CORNING #3640; time 18 hr
Measured potencies and affinities stand elsewhere.
measured attribute: Inhibition (%)
Write the value in % as a bare number.

>>> obs_value("CSC1=NC(=Cc2ccccc2)C(=O)N1C")
10.03
>>> obs_value("C#CCN(C)Cc1cc2cc(OCCCC3CCN(Cc4ccc(C#N)cc4)CC3)ccc2n1C")
-18.18
>>> obs_value("CCOc1nc(N)c(C#N)cc1C#N.Cl")
-30.21

[in] Tell me reported Inhibition for COC1=C(C#N)CC(C)C(=O)N1 (stereo not drawn) , tested with Escherichia coli.
[out] -13.94

[in] Tell me reported Inhibition for C=C1CN(C)c2c(C#N)cc(C#N)c(=S)n21 , tested with Escherichia coli.
[out] -1.72

[in] Tell me reported Inhibition for CC(=O)NC=C1C(=O)OC(C)(C)OC1=O , tested with Escherichia coli.
[out] 11.61

----------
Test system: Escherichia coli
Conditions: Concentration 32 ug.mL-1; ASSAY_TEST Inhibition of Bacterial Growth; detection method Absorption (OD600); MEDIA CAMHB; plate type 384well; NBS; CORNING #3640; time 18 hr
Measured potencies and affinities stand elsewhere.
measured attribute: Inhibition (%)
Write the value in % as a bare number.

As a guide, the following entries are already answered.
>>> obs_value("C=C1CN(C)c2c(C#N)cc(C#N)c(=N)n21")
-14.43
>>> obs_value("N#CC1=C(Cl)Oc2c(ccc3ccccc23)C1c1ccccc1[N+](=O)[O-] (stereo unspecified)")
-14.23
>>> obs_value("CCC(CC)NNC(=O)c1cc2ccccc2n1C")
13.68
>>> obs_value("CC(C)(C)OC(=O)Nc1ccc(Br)cn1")
-0.9
>>> obs_value("COc1ccc(-c2cc(-c3cc4c(OC)ccc(OC)c4nc3Cl)cc(=O)[nH]2)cc1")
-10.79

Next, consider the following compound.
[in] Quick one: Inhibition of Nc1c2c(nc3nc4ccccc4nc13)CCCC2 ?
[out] -11.07
